Numbers sourced from patent US11090304B2.

Coupled exchange IC50 (5 min) for assorted compounds
# tested-target: GDP-bound KRAS protein (aa 1-169), containing both G12C and C118A amino acid substitutions (Homo sapiens, UniProt P01116, C118A/G12C)
# Sequence (P01116 1-169 isoform P01116-2 G12C/C118A): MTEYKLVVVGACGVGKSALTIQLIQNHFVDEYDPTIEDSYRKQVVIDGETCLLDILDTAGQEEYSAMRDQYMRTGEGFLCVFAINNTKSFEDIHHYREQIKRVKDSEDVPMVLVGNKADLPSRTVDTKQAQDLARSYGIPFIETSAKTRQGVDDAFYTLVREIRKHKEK
# procedure-details: Coupled nucleotide exchange assay (SOS-mediated, AlphaScreen)
# Assay type: biochemical
# condition-description: 5 min compound pre-incubation

Sample records with Coupled exchange IC50 (5 min):
[
  {
    "compound": "C=CC(=O)N1CCN(c2nc(=O)n(-c3c(CC)cccc3CC)c3nc(N4CC[C@H](C)C4)c(Cl)cc23)[C@@H](C)C1 [Example 66-5]",
    "recorded-value": "21.2 | nda μM"
  },
  {
    "compound": "C=CC(=O)N1CCN(c2nc(=O)n(-c3c(CC)cccc3CC)c3nc(N4CCC(F)(F)C4)c(Cl)cc23)[C@@H](C)C1 [Example 66-14]",
    "recorded-value": "5.51 | nda μM"
  }
]

Asked: Provide measured Coupled exchange IC50 (5 min) value, entry: C=CC(=O)N1CCN(c2nc(=O)n(-c3c(C)cnn3C(C)(C)C)c3nc(-c4ccccc4F)c(Cl)cc23)[C@@H](C)C1 [Example 55-38]
Given back: 0.377 | nda μM

Asked: Provide measured Coupled exchange IC50 (5 min) value, entry: C=CC(=O)N1CCN(c2nc(=O)n(-c3c(C)cc(CO)cc3C(C)C)c3nc(-c4ccccc4F)c(Cl)cc23)[C@@H](C)C1 (single isomer, unassigned) [Example 80-2-2]
Given back: 0.048 | nda μM

Asked: Provide measured Coupled exchange IC50 (5 min) value, entry: C=CC(=O)N1C[C@H](C)N(c2nc(=O)n(-c3c(C)ccnc3C(C)C)c3nc(-c4ccccc4F)c(F)cc23)[C@@H](C)C1 (atropisomer, axis not shown; (M)) [Example 72-14]
Given back: 0.081 | nda μM

Asked: Provide measured Coupled exchange IC50 (5 min) value, entry: C=CC(=O)N1CCN(c2nc(=O)n(-c3ccccc3C(C)C)c3nc(-c4cc(F)ccc4O)c(Cl)cc23)[C@@H](C)C1 [Example 54-78]
Given back: 0.326 | nda μM

---

# Tested on: Phosphorylation of ERK1/2 in MIA PaCa-2 cells
# procedure-details: Phospho-ERK1/2 MSD assay in MIA PaCa-2 cells
# Format: cell-based
# condition-description: Homo sapiens, MIA PaCa-2, 4 h, read-out: p-ERK IC50 (4 h; MIA PaCa-2), 4 h compound treatment
value-kind: IC50 (nM)

Sample records with IC50:
[
  {
    "compound": "C=CC(=O)N1CCN(c2nc(=O)n(-c3ccccc3C(C)C)c3cc(-c4ccccc4F)c(Cl)cc23)CC1 [Example 88]",
    "recorded-value": 243
  },
  {
    "compound": "C=CC(=O)N1CCN(c2nc(=O)n(CC3(C(F)(F)F)CC3)c3nc(-c4ccccc4F)c(Cl)cc23)CC1 [Example 60-4]",
    "recorded-value": 2250
  },
  {
    "compound": "C=CC(=O)N1CCN(c2nc(=O)n(C(CC)CC)c3nc(Cl)c(Cl)cc23)[C@@H](C)C1 [Example 54-3]",
    "recorded-value": 8580
  },
  {
    "compound": "C=CC(=O)N1CCN(c2nc(=O)n(-c3c(CC)cccc3CC)c3nc(-c4ccccc4)c(Cl)cc23)[C@@H](C)C1 [Example 54-62]",
    "recorded-value": 223
  },
  {
    "compound": "C=CC(=O)N1CCN(c2nc(=O)n(-c3ccccc3C(C)C)c3cc(Br)c(Cl)cc23)[C@@H](C)C1 [Example 9-17]",
    "recorded-value": 1110
  },
  {
    "compound": "C=CC(=O)N1CCN(c2nc(=O)n(-c3ccccc3C(C)C)c3nc(Cl)c(Cl)cc23)CC1 [Example 54-80]",
    "recorded-value": 5640
  },
  {
    "compound": "C=CC(=O)N1CCN(c2nc(=O)n(-c3c(CC)cccc3CC)c3nc(-c4c(C)ccc5[nH]ncc45)c(Cl)cc23)[C@@H](C)C1 [Example 54-66]",
    "recorded-value": 122
  },
  {
    "compound": "CC(C)c1ccccc1-n1c(=O)nc(N2CCN(C(=O)/C=C/CN(C)C)CC2)c2cc(Cl)c(-c3c(O)cccc3F)cc21 [Example 92]",
    "recorded-value": 1550
  }
]

[1] C=CC(=O)N1CCN(c2nc(=O)n(-c3c(CC)cccc3CC)c3nc(-c4ccccc4F)c(Cl)cc23)[C@@H](C)C1 [Example 54-60]
[2] C=CC(=O)N1CCN(c2nc(=O)n(-c3ccccc3C(C)C)c3c(C)c(-c4c(O)cccc4F)c(Cl)cc23)[C@@H](C)C1 (single isomer, unassigned) [Example 90-1]
Asked: Lowest IC50? choose 1 or 2 Give the label under which the chosen entry appears.
Given back: 1

---

# tested-target: GDP-bound KRAS protein (aa 1-169), containing both G12C and C118A amino acid substitutions (Homo sapiens, UniProt P01116, C118A/G12C)
# procedure-details: Coupled nucleotide exchange assay (SOS-mediated, AlphaScreen)
# Assay type: biochemical
# condition-description: 5 min compound pre-incubation
Coupled exchange IC50 (5 min) for assorted compounds

Asked: Provide measured Coupled exchange IC50 (5 min) value, entry: C=CC(=O)N1CCN(c2cc(=O)n(CC(C)(C)C)c3nc(-c4ccccc4F)ccc23)[C@@H](C)C1
Given back: 71.1 | nda μM

Asked: Provide measured Coupled exchange IC50 (5 min) value, entry: C=CC(=O)N1CCN(c2nc(=O)n(-c3c(C)cccc3C3CC3)c3nc(-c4ccccc4F)c(Cl)cc23)[C@@H](C)C1 (single isomer, unassigned) [Example 56-5-2]
Given back: 0.668 | nda μM

Asked: Provide measured Coupled exchange IC50 (5 min) value, entry: C=CC(=O)N1CCN(c2nc(=O)n(-c3ccccc3C(C)(C)C)c3nc(-c4ccccc4F)c(F)cc23)[C@@H](C)C1 (single isomer, unassigned) [Example 58-17-1]
Given back: 33.2 | nda μM

Asked: Provide measured Coupled exchange IC50 (5 min) value, entry: C=CC(=O)N1CCN(c2nc(=O)n(-c3c(C)ccnc3C(C)C)c3nc(-c4cc(C(=O)NC5CC5)ccc4F)c(Cl)cc23)[C@@H](C)C1 (atropisomer, axis not shown; (M))
Given back: 0.385 | nda μM

Asked: Provide measured Coupled exchange IC50 (5 min) value, entry: C=CC(=O)N1C[C@@H](C)N(c2nc(=O)n(-c3c(C)ccnc3C(C)C)c3nc(-c4c(N)cccc4F)c(Cl)cc23)[C@H](C)C1 (atropisomer, axis not shown; (M))
Given back: 5.54 | nda μM

Asked: Provide measured Coupled exchange IC50 (5 min) value, entry: C=CC(=O)N1CCN(c2nc(=O)n(-c3c(C(C)C)ncnc3N(C)C)c3nc(-c4ccccc4F)c(Cl)cc23)[C@@H](C)C1 [Example 140]
Given back: 0.09 | nda μM

Asked: Provide measured Coupled exchange IC50 (5 min) value, entry: C=CC(=O)N1CCN(c2nc(=O)n(-c3c(C)cccc3C(C)C)c3nc(-c4c(O)cccc4F)c(F)cc23)C[C@H]1C (single isomer, unassigned)
Given back: 0.311 | nda μM

Asked: Provide measured Coupled exchange IC50 (5 min) value, entry: C=CC(=O)N1CCN(c2nc(=O)n(-c3c(CC)cccc3CC)c3nc(N4CCC[C@H](C)C4)c(Cl)cc23)[C@@H](C)C1
Given back: 16.6 | nda μM

Asked: Provide measured Coupled exchange IC50 (5 min) value, entry: C=CC(=O)N1CCN(c2nc(=O)n(-c3ccccc3C(C)C)c3nc(C4=CCCCC4)c(Cl)cc23)[C@@H](C)C1 [Example 54-75]
Given back: 1.08 | nda μM

Asked: Provide measured Coupled exchange IC50 (5 min) value, entry: C=CC(=O)N1CCN(c2nc(=O)n(-c3c(C)ccnc3C(C)C)c3nc(-c4c(O)cccc4F)c(F)cc23)[C@@H](C(F)F)C1 (single isomer, unassigned)
Given back: 0.136 | nda μM

Asked: Provide measured Coupled exchange IC50 (5 min) value, entry: C=CC(=O)N1CCN(c2nc(=O)n(-c3c(C)cccc3CC)c3nc(-c4c(O)cccc4F)c(F)cc23)[C@@H](C)C1 (single isomer, unassigned) [Example 57-14-1]
Given back: 0.288 | nda μM

---

# tested-target: GDP-bound KRAS protein (aa 1-169), containing both G12C and C118A amino acid substitutions (Homo sapiens, UniProt P01116, C118A/G12C)
# procedure-details: Coupled nucleotide exchange assay (SOS-mediated, AlphaScreen)
# Assay type: biochemical
# condition-description: 5 min compound pre-incubation
Coupled exchange IC50 (5 min) for assorted compounds

Sample records with Coupled exchange IC50 (5 min):
[
  {
    "compound": "C=CC(=O)N1CCN(c2nc(=O)c(-c3ccccc3C)c3cc(-c4ccccc4Br)c(C)nn23)CC1",
    "Coupled exchange IC50 (5 min)": "172 | nda μM"
  },
  {
    "compound": "C=CC(=O)N1CCN(c2nc(=O)n(-c3nccn3C(C)C)c3nc(-c4c(O)cccc4F)c(Cl)cc23)[C@@H](C)C1",
    "Coupled exchange IC50 (5 min)": "0.811 | nda μM"
  }
]

Asked: Provide measured Coupled exchange IC50 (5 min) value, entry: C=CC(=O)N1CCN(c2nc(=O)n(-c3c(C(C)C)cccc3N(C)C)c3nc(-c4ccccc4F)c(Cl)cc23)[C@@H](C)C1 (single isomer, unassigned) [Example 54-104-2]
Given back: 0.035 | nda μM
